experiment description: in vivo
measurement context: male, Sprague Dawley, rat, iv, 4.84 umol/kg
readout: Vd

Known results for compounds:
{"compound": "C=CCN1CC[C@]23c4c5ccc(O)c4O[C@H]2[C@@H](OCCOCCOCCOCCOCCOCCOCCOC)CC[C@@]3(O)[C@H]1C5 [Naloxegol, reference compound]", "Vd": "2.76 L/kg"}
{"compound": "C=CCN1CC[C@]23c4c5ccc(O)c4O[C@H]2[C@@H](OCc2cn(CCNCCCCCCOc4cc(OCCCc6c(C)n[nH]c6C)cc(C(=O)O)c4)nn2)CC[C@@]3(O)[C@H]1C5", "Vd": "0.12 L/kg"}

Read the next record carefully.
Answer with the recorded Vd for the compound listed here: C=CCN1CC[C@]23c4c5ccc(O)c4O[C@H]2C(=O)CC[C@@]3(O)[C@H]1C5 [Naloxone, reference compound] 1.23 L/kg
